TARGET_SYSTEM: DGAT2
SETTINGS: ASO, HepG2, 2.5 µM
After the bases stand the sugars from the 5' end (letter, count) and the backbone: PS all phosphorothioate, else s phosphorothioate and o phosphodiester by linkage. Methylation of C is not given here. e = 2'-O-(2-methoxyethyl) (MOE); d = 2'-deoxy (DNA)
EXPERIMENTAL_ENDPOINT: target mRNA inhibition (%)

{"columns": ["ITEM_SEQUENCE", "EXPERIMENTAL_ENDPOINT", "VAL"],
 "data": [
  ["GGCTGTCAGAGGCTACTGGC (sugars e5 d10 e5, PS)", "target mRNA inhibition", 74],
  ["TTAGGCATGCTTCCTCCCAC (sugars e5 d10 e5, PS)", "target mRNA inhibition", 78],
  ["TGCTTATCCTTGAGGGTCTC (sugars e5 d10 e5, PS)", "target mRNA inhibition", 64],
  ["TGGATAGTCGATTTACCAGA (sugars e5 d10 e5, PS)", "target mRNA inhibition", 62],
  ["TTCCTTTGAAATCCAATGCA (sugars e5 d10 e5, PS)", "target mRNA inhibition", 63],
  ["CAGCGATGAGCCAGCAA (sugars e3 d10 e4, PS)", "target mRNA inhibition", 35],
  ["CTTACTGTTCAGCAGTCTGC (sugars e5 d10 e5, PS)", "target mRNA inhibition", 57],
  ["GCTCATGAGAAGCTTAGAAG (sugars e5 d10 e5, PS)", "target mRNA inhibition", 66],
  ["GGACACCTGGAGCTGCGGCC (sugars e5 d10 e5, PS)", "target mRNA inhibition", 35],
  ["CCAGTTTCGGACCCACTGTG (sugars e2 d13 e5, PS)", "target mRNA inhibition", 12],
  ["GCTTCTTGGGCATCTGCTAG (sugars e5 d10 e5, PS)", "target mRNA inhibition", 74],
  ["GTGGCTCTCTAGATAGGGTG (sugars e5 d10 e5, PS)", "target mRNA inhibition", 68],
  ["CCAGGTAAGGCCGTATGCCT (sugars e5 d10 e5, PS)", "target mRNA inhibition", 18],
  ["CGTGAGCTGGTGTTCTACAA (sugars e5 d10 e5, PS)", "target mRNA inhibition", 59],
  ["CTTCACCAGGGCCTCCATGT (sugars e5 d10 e5, PS)", "target mRNA inhibition", 10],
  ["GGGCTAATACCTACCTCACC (sugars e5 d10 e5, PS)", "target mRNA inhibition", 53],
  ["CCCAACCTTTAAGGCCTATC (sugars e5 d10 e5, PS)", "target mRNA inhibition", 46],
  ["GCACATCTCTTCCATCTCCA (sugars e5 d10 e5, PS)", "target mRNA inhibition", 74],
  ["GGCAGAGAAACTGGTCCTGC (sugars e5 d10 e5, PS)", "target mRNA inhibition", 55],
  ["GAGCACAGCGATGAGCCAGC (sugars e5 d10 e5, PS)", "target mRNA inhibition", 43],
  ["GAGGAGTTCTCGAATATCCC (sugars e5 d10 e5, PS)", "target mRNA inhibition", 43],
  ["TCACCAGATTGTTGTGGGAA (sugars e5 d10 e5, PS)", "target mRNA inhibition", 69],
  ["CCAATGCCTAGGTCACAGTT (sugars e5 d10 e5, PS)", "target mRNA inhibition", 91],
  ["GTGCTCTGTGGGCTCCTCCA (sugars e5 d10 e5, PS)", "target mRNA inhibition", 69],
  ["TAAGCCTCGGTGTCCTCTCC (sugars e5 d10 e5, PS)", "target mRNA inhibition", 90]
]}
